Tested on: Staphylococcus aureus
ASSAY_PROTOCOL: Antibacterial activity against Staphylococcus aureus at 256 ug/ml by broth microdilution method
Assay type: functional, organism-based
CONDITION_DETAILS: dose 256.0 µg/ml
Activity calls are given as the source filed them. The calls are words filed in the database; no cut-off is given here.
Can you answer with just one of these options? active, inactive

Would you please look over these solved cases?
{"MOL": "COc1cc(C(=O)/C=C/c2cccc(F)c2)cc([N+](=O)[O-])c1O", "MEASUREMENT_TARGET": "Staphylococcus aureus", "DISCRETE_LABEL": "active"}
{"MOL": "COc1cc(C(=O)/C=C/c2ccc(F)cc2)cc([N+](=O)[O-])c1O", "MEASUREMENT_TARGET": "Staphylococcus aureus", "DISCRETE_LABEL": "active"}
{"MOL": "COc1cc(C(=O)/C=C/c2ccc(SC)cc2)ccc1O", "MEASUREMENT_TARGET": "Staphylococcus aureus", "DISCRETE_LABEL": "inactive"}
{"MOL": "COc1cc(C(=O)/C=C/c2ccc(SC)cc2)cc([N+](=O)[O-])c1O", "MEASUREMENT_TARGET": "Staphylococcus aureus", "DISCRETE_LABEL": "active"}
{"MOL": "COc1cc(C(=O)/C=C/c2ccc(Cl)c(Cl)c2)cc([N+](=O)[O-])c1O", "MEASUREMENT_TARGET": "Staphylococcus aureus", "DISCRETE_LABEL": "active"}
{"MOL": "COc1cc(C(=O)/C=C/c2ccc(Cl)cc2)cc([N+](=O)[O-])c1O", "MEASUREMENT_TARGET": "Staphylococcus aureus", "DISCRETE_LABEL": "active"}
{"MOL": "COc1cc(C(=O)/C=C/c2ccc(Cl)c(Cl)c2)ccc1O", "MEASUREMENT_TARGET": "Staphylococcus aureus", "DISCRETE_LABEL": "inactive"}
{"MOL": "COc1cc(C(=O)/C=C/c2ccc(Cl)cc2)ccc1O", "MEASUREMENT_TARGET": "Staphylococcus aureus", "DISCRETE_LABEL": "inactive"}

Please let me know the test result on file for COc1cc(C(=O)/C=C/c2cccc(Cl)c2)cc([N+](=O)[O-])c1O .
active

Please let me know the test result on file for COc1cc(C(=O)/C=C/c2ccc(Cl)cc2Cl)cc([N+](=O)[O-])c1O .
active

====

System: Staphylococcus aureus
ASSAY_PROTOCOL: Antibacterial activity against Staphylococcus aureus at 256 ug/ml by broth microdilution method
Format: functional, organism-based
CONDITION_DETAILS: dose 256.0 µg/ml
Active and inactive are the calls of the source. The rule behind the calls is not given here.
Can you answer with just one of these options? label 1 (active), label 0 (inactive)

Would you please look over these solved cases?
{"MOL": "COc1cc(C(=O)/C=C/c2ccc(Br)cc2F)ccc1O", "DISCRETE_LABEL": "label 0"}
{"MOL": "CCOc1ccc(/C=C/C(=O)c2ccc(O)c(OC)c2)cc1", "DISCRETE_LABEL": "label 1"}
{"MOL": "COc1cc(C(=O)/C=C/c2cccc(Cl)c2)ccc1O", "DISCRETE_LABEL": "label 0"}
{"MOL": "COc1cc(C(=O)/C=C/c2ccc([N+](=O)[O-])cc2)cc([N+](=O)[O-])c1O", "DISCRETE_LABEL": "label 1"}
{"MOL": "COc1cc(C(=O)/C=C/c2cccc(F)c2)ccc1O", "DISCRETE_LABEL": "label 0"}

Please find the next compound below.
Please let me know the test result on file for COc1cc(C(=O)/C=C/c2ccc(F)cc2)ccc1O .
label 0
